Biological target: Caspase-3 (Homo sapiens, UniProt P42574)
Sequence (P42574 29-175 limits assumed): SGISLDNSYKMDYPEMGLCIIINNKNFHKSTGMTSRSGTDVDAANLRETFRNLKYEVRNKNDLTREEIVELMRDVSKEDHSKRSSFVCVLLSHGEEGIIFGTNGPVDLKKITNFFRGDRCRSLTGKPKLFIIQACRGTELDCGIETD
Sequence (P42574 176-277 limits assumed): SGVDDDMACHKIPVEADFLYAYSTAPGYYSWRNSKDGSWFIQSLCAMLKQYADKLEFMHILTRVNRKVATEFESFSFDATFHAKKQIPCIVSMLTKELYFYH
Experiment: Kinetic compound screening, progress curve method, caspase-3
Type: biochemical
Settings: Table IV
Residues, ends and D or L forms follow the SMILES beside them. *: point of attachment. Cbz = O=C(OCc1ccccc1)*; CH2F = FC*
Recorded Caspase-3 Ki(app) values for a group of compounds are listed next.

Study these solved cases before continuing.
{"compound": "Cc1cccc(C)c1C(=O)OCC(=O)[C@H](CC(=O)O)NC(=O)[C@H](C)NC(=O)[C@H](CC(C)C)NC(=O)C1CCCN1C(=O)Cc1ccc([N+](=O)[O-])c(O)c1 (stereo partly shown)", "Caspase-3 Ki(app)": "46,108 M-1s-1"}
{"compound": "COC(=O)C[C@H](NC(=O)[C@H](C)NC(=O)[C@@H](NC(=O)OCc1ccccc1)C(C)C)C(=O)CF [ZVAD-fmk, reference compound] (Cbz-Val-Ala-Asp(OMe)-CH2F)", "Caspase-3 Ki(app)": "25,922 M-1s-1"}
{"compound": "Cc1cccc(C)c1C(=O)OCC(=O)[C@H](CC(=O)O)NC(=O)[C@@H](NC(=O)C(CCC(=O)O)NC(=O)[C@H](Cc1ccc2ccccc2c1)NC(=O)Cc1ccc(O)c([N+](=O)[O-])c1)C(C)C (stereo partly shown)", "Caspase-3 Ki(app)": "781,733 M-1s-1"}

# next compound below
Q: Quick one: give measured Caspase-3 Ki(app) for `Cc1ccc(C[C@H](NC(=O)[C@H](CC(=O)O)NC(=O)Cc2ccc(O)c([N+](=O)[O-])c2)C(=O)NC2(C(=O)N[C@@H](CC(=O)O)C(=O)COC(=O)c3c(C)cccc3C)CC2)cc1`
Ans: 448,179 M-1s-1
